Reference source: PubChem BioAssay (NCATS)

Protocol summary: MultiTox-Fluor Cytotoxicity Assay - LYMP1-002 - Dead Cells (AID 960); further: nearly all actives have a fitted effect of over 60% in size
Settings: LYMP1-002 lymphoblastoid cells, dead-cell protease fluorescence; series mostly up to 46.1 µM
Inconclusive results are not listed. Active and inactive are the calls of the source. The call rests on the fitted dose curve; in most records, active means well fitted cell-killing curve with a large enough effect; inconclusive means small, poorly fitted or top-dose-only effect, or effect the other way; inactive means no such curve, though single readings can be large or run the other way.
Outcome codes: active, inactive

chemical_structure=CC(=O)OC/C=C(C)/C=C/C=C(C)/C=C/C1=C(C)CCCC1(C)C label_value=inactive
chemical_structure=COc1cc(C=O)ccc1O label_value=inactive
chemical_structure=Nc1cccc2c(N)cccc12 label_value=inactive
chemical_structure=Nc1ccc(O)cc1 label_value=active
chemical_structure=CC(C)(C)c1ccc(O)c(O)c1 label_value=inactive
chemical_structure=O=C(Oc1ccccc1)c1ccccc1O label_value=inactive
